This collection of values is drawn from PubChem BioAssay.

composite z-score by entry:
- Assayed target: E3 ubiquitin-protein ligase XIAP (Homo sapiens) (UniProt P98170)
- Sequence (P98170 whole entry, looked up): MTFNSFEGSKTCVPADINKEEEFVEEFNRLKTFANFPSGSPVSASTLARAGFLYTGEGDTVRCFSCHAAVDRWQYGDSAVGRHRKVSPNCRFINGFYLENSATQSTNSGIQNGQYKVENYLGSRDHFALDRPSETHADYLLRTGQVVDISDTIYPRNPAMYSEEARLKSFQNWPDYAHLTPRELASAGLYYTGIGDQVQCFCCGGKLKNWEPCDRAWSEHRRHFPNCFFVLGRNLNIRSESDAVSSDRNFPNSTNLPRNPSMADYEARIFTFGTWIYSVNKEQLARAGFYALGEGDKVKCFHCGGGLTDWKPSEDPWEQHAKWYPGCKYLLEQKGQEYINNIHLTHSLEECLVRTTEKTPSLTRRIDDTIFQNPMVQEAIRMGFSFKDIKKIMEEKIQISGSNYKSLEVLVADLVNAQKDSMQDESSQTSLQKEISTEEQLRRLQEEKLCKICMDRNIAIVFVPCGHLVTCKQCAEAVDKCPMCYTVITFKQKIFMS
- Experiment summary: XIAP binders, primary screen, biophysical, small-molecule microarray, fluorescence 635 nm (AID 1181);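 also: score merges 667 nm emission and signal to noise over triplicate slides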
- Condition info: small-molecule microarray binding, higher = more signal
Measure name: composite z-score

INSERT INTO assay_data (molecule, measure_name, result) VALUES
  ('O=C1CCCC=C1C(O)COCc1ccccc1 (stereo not drawn)', 'composite z-score', -0.02),
  ('C[C@H]1CC[C@@H](C(=O)O)N[C@@H]1c1ccc(C#Cc2ccccc2)cc1', 'composite z-score', -0.0773),
  ('COc1ccc(O[C@H]2C=C[C@@H](c3ccccc3)O[C@@H]2CON=C(C)CCN2CCCc3nc(C)c(C)cc32)cc1', 'composite z-score', 2.22);
